Where these numbers come from: ChEMBL document CHEMBL3988442

# study.system: Ubiquitin-activating enzyme e1, putative (Leishmania donovani (strain BPK282A1)) (UniProt E9BSI1)
# Sequence (whole entry): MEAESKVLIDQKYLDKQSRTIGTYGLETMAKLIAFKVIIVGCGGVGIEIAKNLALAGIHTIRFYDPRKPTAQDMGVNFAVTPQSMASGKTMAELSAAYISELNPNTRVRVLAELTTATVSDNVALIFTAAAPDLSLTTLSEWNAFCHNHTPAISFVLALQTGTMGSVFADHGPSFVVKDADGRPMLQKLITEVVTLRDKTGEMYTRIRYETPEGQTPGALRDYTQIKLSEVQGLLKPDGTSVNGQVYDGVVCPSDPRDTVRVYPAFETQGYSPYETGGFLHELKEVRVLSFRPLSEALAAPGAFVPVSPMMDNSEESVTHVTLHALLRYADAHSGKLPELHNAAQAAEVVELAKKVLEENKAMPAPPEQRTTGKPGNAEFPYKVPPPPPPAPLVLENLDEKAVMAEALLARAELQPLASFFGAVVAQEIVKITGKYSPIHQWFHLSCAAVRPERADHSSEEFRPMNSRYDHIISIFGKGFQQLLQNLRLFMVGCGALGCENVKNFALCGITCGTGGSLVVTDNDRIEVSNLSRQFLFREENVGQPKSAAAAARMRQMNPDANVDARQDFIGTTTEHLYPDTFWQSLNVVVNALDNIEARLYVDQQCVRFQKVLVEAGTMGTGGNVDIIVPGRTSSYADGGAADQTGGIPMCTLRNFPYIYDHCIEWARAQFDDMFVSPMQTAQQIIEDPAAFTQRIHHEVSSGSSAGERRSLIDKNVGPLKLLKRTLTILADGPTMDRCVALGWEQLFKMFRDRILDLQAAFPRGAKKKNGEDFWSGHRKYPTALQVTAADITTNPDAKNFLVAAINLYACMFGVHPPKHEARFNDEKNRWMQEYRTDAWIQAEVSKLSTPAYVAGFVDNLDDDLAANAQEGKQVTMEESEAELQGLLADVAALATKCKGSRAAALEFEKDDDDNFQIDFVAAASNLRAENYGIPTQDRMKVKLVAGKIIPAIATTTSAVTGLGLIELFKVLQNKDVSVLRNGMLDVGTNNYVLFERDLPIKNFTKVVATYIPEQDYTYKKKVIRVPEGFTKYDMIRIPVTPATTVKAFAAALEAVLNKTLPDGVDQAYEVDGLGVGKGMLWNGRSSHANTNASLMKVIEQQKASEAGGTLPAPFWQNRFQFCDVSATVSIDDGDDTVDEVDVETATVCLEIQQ
# assay.notes: Leishmania donovani Ubiquitin Activating Enzyme (LdE1)
# Format: functional
# Set-up: scale not given: direction of the effect not stated beside the values
# particulars: 30 µM
Entries with a potency or affinity are not part of this list.
Give measured Percent Effect for each item. Keep answers brief.
Note: state the figure and append the unit.

Check out these entries, answers already filled in.
>>> df
                                compound  result
0              Cc1ccc(OCC(=O)NCC(C)C)nc1   13.7%
1  COC[C@@]12CCO[C@@H]1CCN(Cc1ccccc1F)C2     11%

Here are 4 compounds. What values of Percent Effect were reported for them?
1. CCc1nsc(NC2CCCn3nc(COC)nc32)n1 (stereo not given)
2. CN1CCN(Cc2cccnc2)C2(CCN(c3ncc(F)cn3)C2)C1=O (stereo not given)
3. Cn1cc(N2CCC(NC(=O)c3c(F)cccc3F)C2=O)cn1 (stereo not given)
4. CCS(=O)(=O)CC(=O)NC(c1ccccc1)C1CCCCC1 (stereo not given)

Found:
1: 13.3%; 2: 5.2%; 3: -2.7%; 4: 2.63%
